Numbers sourced from patent US20030166645A1.

tested on: E faecalis; assay: Microdilution antimicrobial susceptibility test (MIC); assay type: cell-based; conditions: broth microdilution, 18-24 h, MIC = 90% inhibition of growth
Quantity measured: MIC E faecalis MIC2 (µg/mL)
Give a bare numeral; the unit µg/mL is implied.

MIC E faecalis MIC2 recorded for this compound, O=[N+]([O-])c1ccc(-c2nnc(S)n2-c2cccc(Cl)c2)o1 [Compound 140] , is 16

MIC E faecalis MIC2 recorded for this compound, Cn1c(SCc2ccncc2)nnc1-c1ccc([N+](=O)[O-])o1 [Compound 129] , is 64

MIC E faecalis MIC2 recorded for this compound, O=[N+]([O-])c1ccc(-c2nnc(S)n2-c2ccc(I)cc2)o1 [Compound 138] , is 1

MIC E faecalis MIC2 recorded for this compound, O=[N+]([O-])c1ccc(-c2nnc(S)n2-c2ccc(Oc3ccccc3)cc2)o1 [Compound 143] , is 1

MIC E faecalis MIC2 recorded for this compound, O=[N+]([O-])c1ccc(-c2nnc(S)n2Cc2ccccc2)o1 [Compound 135] , is 16

MIC E faecalis MIC2 recorded for this compound, O=[N+]([O-])c1ccc(-c2nnc(S)n2-c2ccc(Br)c(Cl)c2)o1 [Compound 142] , is 1

----------
test system: E coli (ImpA); assay: Microdilution antimicrobial susceptibility test (MIC); format: cell-based; details: broth microdilution, 18-24 h, MIC = 90% inhibition of growth
Quantity measured: MIC E coli (ImpA) MIC9 (µg/mL)
Give a bare numeral; the unit µg/mL is implied.

MIC E coli (ImpA) MIC9 recorded for this molecule, CCCCn1c(S)nnc1-c1ccc([N+](=O)[O-])o1 [Compound 133] , is 64

MIC E coli (ImpA) MIC9 recorded for this molecule, Cn1c(SCc2ccncc2)nnc1-c1ccc([N+](=O)[O-])o1 [Compound 129] , is 4

MIC E coli (ImpA) MIC9 recorded for this molecule, Cn1c(-c2ccc([N+](=O)[O-])o2)nnc1S(=O)(=O)Nc1ccccc1 [Compound 123] , is 16

MIC E coli (ImpA) MIC9 recorded for this molecule, O=[N+]([O-])c1ccc(-c2nnc(S)n2-c2ccc(F)cc2)o1 [Compound 136] , is 16

MIC E coli (ImpA) MIC9 recorded for this molecule, O=[N+]([O-])c1ccc(-c2nnc(S)n2CCCN2CCOCC2)o1 [Compound 120] , is 32

MIC E coli (ImpA) MIC9 recorded for this molecule, O=[N+]([O-])c1ccc(-c2nnc(S(=O)(=O)O)n2-c2ccc(Cl)cc2)o1 [Compound 132] , is 16

MIC E coli (ImpA) MIC9 recorded for this molecule, Cn1c(SCC#N)nnc1-c1ccc([N+](=O)[O-])o1 [Compound 121] , is 2

MIC E coli (ImpA) MIC9 recorded for this molecule, O=[N+]([O-])c1ccc(-c2nnc(S(=O)(=O)O)n2-c2ccccc2)o1 [Compound 127] , is 64

MIC E coli (ImpA) MIC9 recorded for this molecule, O=[N+]([O-])c1ccc(-c2nnc(S)n2-c2ccccc2)o1 [Compound 134] , is 2

MIC E coli (ImpA) MIC9 recorded for this molecule, O=[N+]([O-])c1ccc(-c2nnc(S)n2-c2ccc(I)cc2)o1 [Compound 138] , is 0.25

MIC E coli (ImpA) MIC9 recorded for this molecule, O=[N+]([O-])c1ccc(-c2nnc(S)n2Cc2ccccc2)o1 [Compound 135] , is 32

MIC E coli (ImpA) MIC9 recorded for this molecule, O=[N+]([O-])c1ccc(-c2nnc(S)n2-c2cccc(Cl)c2)o1 [Compound 140] , is 0.5

MIC E coli (ImpA) MIC9 recorded for this molecule, O=[N+]([O-])c1ccc(-c2nnc(S)n2C2CCCCC2)o1 [Compound 137] , is 32

MIC E coli (ImpA) MIC9 recorded for this molecule, O=[N+]([O-])c1ccc(-c2nnc(S)n2Cc2ccco2)o1 [Compound 125] , is 4

MIC E coli (ImpA) MIC9 recorded for this molecule, C=CCn1c(S)nnc1-c1ccc([N+](=O)[O-])o1 [Compound 130] , is 64
